SKW3 WT vs KO anti-hKappa-FITC values, listed per item
Biological target: T1, human CD4 on cells (SKW3 cells; human PBMCs) (human, UniProt P01730 26-458)
T1 construct: whole, on cells; SKW3 CD4 knockout cells served as the negative cell line for the WT vs KO ratios; also called hCD4; SKW3 WT
Assay: FACS primary screen, non-clonal hybridoma supernatant; SKW3 WT vs SKW3 CD4 KO cells, anti-hKappa-FITC
Field: numeric (fold). Do not append units.

Below are worked cases with known answers.
Task: Any idea what SKW3 WT vs KO anti-hKappa-FITC was measured for 75110_05E05A (antibody, V domains shown, Tested as non-clonal hybridoma supernatant (AlivaMab Mouse Kappa), detected with anti-mouse Fc and anti-human kappa) VH: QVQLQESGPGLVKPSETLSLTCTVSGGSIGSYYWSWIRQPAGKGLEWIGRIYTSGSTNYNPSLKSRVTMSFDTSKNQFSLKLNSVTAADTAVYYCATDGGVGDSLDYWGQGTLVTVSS VL: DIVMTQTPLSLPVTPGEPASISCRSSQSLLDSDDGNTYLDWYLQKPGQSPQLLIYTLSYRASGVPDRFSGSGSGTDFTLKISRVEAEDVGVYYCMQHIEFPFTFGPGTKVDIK ?
Output: 3.2

Task: Any idea what SKW3 WT vs KO anti-hKappa-FITC was measured for 75110_07J24A (antibody, V domains shown, Tested as non-clonal hybridoma supernatant (AlivaMab Mouse Kappa), detected with anti-mouse Fc and anti-human kappa) VH: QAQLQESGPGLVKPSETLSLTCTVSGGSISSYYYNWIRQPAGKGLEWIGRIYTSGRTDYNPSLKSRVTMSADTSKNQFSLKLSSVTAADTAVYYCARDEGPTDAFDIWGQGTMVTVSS VL: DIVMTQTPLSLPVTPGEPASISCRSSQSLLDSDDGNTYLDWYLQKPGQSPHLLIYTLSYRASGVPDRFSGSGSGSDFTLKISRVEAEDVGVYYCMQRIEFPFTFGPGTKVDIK ?
Output: 1.8

Task: Any idea what SKW3 WT vs KO anti-hKappa-FITC was measured for 75110_02I18A (antibody, V domains shown, Tested as non-clonal hybridoma supernatant (AlivaMab Mouse Kappa), detected with anti-mouse Fc and anti-human kappa) VH: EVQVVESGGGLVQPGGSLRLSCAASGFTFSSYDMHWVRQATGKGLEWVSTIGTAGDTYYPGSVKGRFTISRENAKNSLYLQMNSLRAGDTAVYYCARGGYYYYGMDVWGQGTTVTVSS VL: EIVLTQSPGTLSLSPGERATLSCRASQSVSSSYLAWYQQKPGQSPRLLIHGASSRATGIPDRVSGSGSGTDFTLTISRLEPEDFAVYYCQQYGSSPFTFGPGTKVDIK ?
Output: 2.2

Task: Any idea what SKW3 WT vs KO anti-hKappa-FITC was measured for 75110_08A13A (antibody, V domains shown, Tested as non-clonal hybridoma supernatant (AlivaMab Mouse Kappa), detected with anti-mouse Fc and anti-human kappa) VH: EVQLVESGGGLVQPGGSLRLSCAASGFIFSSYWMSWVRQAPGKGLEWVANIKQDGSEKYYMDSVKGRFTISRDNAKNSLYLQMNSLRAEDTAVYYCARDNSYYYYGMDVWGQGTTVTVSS VL: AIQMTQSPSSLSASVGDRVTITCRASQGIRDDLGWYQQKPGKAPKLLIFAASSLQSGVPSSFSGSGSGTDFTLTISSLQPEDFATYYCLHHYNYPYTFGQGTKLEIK ?
Output: 1

With those in mind, consider the next binder.
Task: Any idea what SKW3 WT vs KO anti-hKappa-FITC was measured for 75110_04H17A (antibody, V domains shown, Tested as non-clonal hybridoma supernatant (AlivaMab Mouse Kappa), detected with anti-mouse Fc and anti-human kappa) VH: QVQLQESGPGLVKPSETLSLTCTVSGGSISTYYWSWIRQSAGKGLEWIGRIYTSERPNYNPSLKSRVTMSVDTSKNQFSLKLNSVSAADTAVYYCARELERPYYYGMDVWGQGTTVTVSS VL: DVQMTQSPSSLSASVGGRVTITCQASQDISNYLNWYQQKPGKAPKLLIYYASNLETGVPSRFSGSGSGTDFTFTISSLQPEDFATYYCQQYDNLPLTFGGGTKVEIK ?
Output: 1.6

// data source = patent US20220112288A1
